# TARGET_OR_SYSTEM: EphB4 (Homo sapiens (Human))
# Sequence (P54760 605-890): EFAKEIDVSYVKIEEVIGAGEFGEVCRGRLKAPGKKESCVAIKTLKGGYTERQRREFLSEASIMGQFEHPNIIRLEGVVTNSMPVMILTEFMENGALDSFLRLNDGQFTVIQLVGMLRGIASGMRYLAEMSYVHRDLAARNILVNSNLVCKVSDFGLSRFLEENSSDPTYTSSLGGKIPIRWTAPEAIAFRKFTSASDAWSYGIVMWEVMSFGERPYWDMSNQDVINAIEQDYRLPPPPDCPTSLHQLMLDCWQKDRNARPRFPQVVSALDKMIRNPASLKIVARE
// reported IC50 per item

Study these solved cases before continuing.
COMPOUND	TARGET_OR_SYSTEM	READING
COc1cc2c(Nc3ccc(Cl)c(Cl)c3)ncnc2cc1OCCC1CCCN1C (stereo not shown)	EphB4 (Homo sapiens (Human))	< 50 nM
COc1cc2c(Nc3ccc(Cl)c(Cl)c3)ncnc2cc1OCc1noc(C2CCNCC2)n1	EphB4 (Homo sapiens (Human))	50 to 1000 nM
COc1cc2c(Nc3cccc(Cl)c3C)ncnc2cc1O[C@H]1CO[C@H]2[C@@H]1OC[C@@H]2OC	EphB4 (Homo sapiens (Human))	50 to 1000 nM
COc1cc2c(Nc3ccc(Cl)c(Cl)c3)ncnc2cc1OCc1ccc2nc(C(F)(F)F)cc(Cl)c2c1	EphB4 (Homo sapiens (Human))	< 50 nM
COc1cc2c(Nc3ccc(Br)cc3F)ncnc2cc1O[C@@H]1CO[C@@H]2[C@H]1OC[C@H]2F	EphB4 (Homo sapiens (Human))	< 50 nM

Tell me IC50 reported for `COc1cc2c(Nc3ccc(Cl)c(Cl)c3)ncnc2cc1OCc1nc(N2CCN(C(=O)OC(C)(C)C)CC2)no1`
< 50 nM

Tell me IC50 reported for `COc1cc2c(Nc3ccc(Cl)c(Cl)c3)ncnc2cc1OCc1csc(N2CCOCC2)n1`
< 50 nM

Tell me IC50 reported for `COc1cc2c(Nc3ccc(Cl)c(Cl)c3)ncnc2cc1OCc1nc([C@@H]2CCCN2)no1`
< 50 nM

Tell me IC50 reported for `COc1cc2c(Nc3ccc(Cl)c(Cl)c3)ncnc2cc1OCCC1OCCCO1`
50 to 1000 nM

Tell me IC50 reported for `COc1cc2c(Nc3ccc(Cl)c(Cl)c3)ncnc2cc1OCc1noc(C2CCN(C)CC2)n1`
50 to 1000 nM

Tell me IC50 reported for `COc1cc2c(Nc3ccc(Cl)c(Cl)c3)ncnc2cc1OCCC1CCCCC1`
50 to 1000 nM

Tell me IC50 reported for `COc1cc2c(Nc3ccc(Cl)c(Cl)c3)ncnc2cc1OCC1CCC1`
< 50 nM

Tell me IC50 reported for COc1cc2c(Nc3ccc(Cl)c(Cl)c3)ncnc2cc1OCc1noc(C2CCCN(C)C2)n1 (stereo not shown)
50 to 1000 nM

Tell me IC50 reported for `COc1cc2c(Nc3ccc(Cl)c(Cl)c3)ncnc2cc1OCc1nc2c(s1)CNCC2`
50 to 1000 nM

Tell me IC50 reported for `COc1cc2c(Nc3ccc(Cl)c(Cl)c3)ncnc2cc1OCc1csc(CO)n1`
< 50 nM

Tell me IC50 reported for `COc1cc2c(Nc3ccc(Cl)c(Cl)c3)ncnc2cc1OCc1csc(-c2ccc(C(F)(F)F)cc2)n1`
50 to 1000 nM
